Tested on: HOP-92 NSCLC
Test: NCI tumour cell line growth inhibition, 48 h
QUANTITY KIND: TGI

Reported TGI for HOP-92 NSCLC, given `O=c1ccc2[n+]([O-])c3ccc(O)cc3oc-2c1` ? > 100 µM

Now the same for `O=C(O)c1c[nH]c2cc(OCc3ccccc3)ccc2c1=O` 35.1 µM

Now the same for `CN(CCCN(C)Cc1ccc(Cl)c(Cl)c1)CCN1CCCC1` > 28.3 µM

Now the same for `Cc1ccc(-n2c(=S)[nH]c3ccc(Br)cc3c2=O)cc1` > 100 µM

Now the same for O=C1CC2(CCC(O)(c3ccco3)C(C(=O)c3ccco3)C2)C(=O)c2ccccc2N1 (stereo unspecified) > 100 µM

Now the same for C=Cc1ccccc1C1C(C(=O)OCC)=C(C)N=C2OC(C(=O)OC)C(=O)N21 (stereo unspecified) > 100 µM
